Molecular target: GSK3β (Homo sapiens)
Details: Caliper assay; GSK3β over GSK3α
measurement.kind: GSK3β fold selectivity (fold)

# example entries with known answers
[
  {
    "compound": "CC(C)c1[nH]nc2c1[C@]1(CCc3ccccc31)C1=C(CC(C)(C)CC1=O)N2 (stereo in doubt) [Compound 243]",
    "reading.unit": "fold",
    "GSK3β fold selectivity": 6.6
  },
  {
    "compound": "CC(C)c1[nH]nc2c1[C@@](C)(c1ccccc1Cl)C1=C(CC(C)(C)CC1=O)N2 (stereo in doubt) [Compound 317]",
    "reading.unit": "fold",
    "GSK3β fold selectivity": 3.8
  },
  {
    "compound": "CC1(C)CC(=O)C2=C(C1)Nc1n[nH]c(C3CCCC3)c1C2(C)c1ccccc1 (racemic) [Compound 300]",
    "reading.unit": "fold",
    "GSK3β fold selectivity": 3.5
  },
  {
    "compound": "CC1(C)CC(=O)C2=C(C1)Nc1n[nH]c(C3CC(F)(F)C3)c1C2(C)c1ccccc1 (racemic) [Compound 120]",
    "reading.unit": "fold",
    "GSK3β fold selectivity": 4.7
  }
]

(I) CC(C)(C)Cc1[nH]nc2c1[C@]1(CCc3cc(F)ccc31)C1=C(CC(C)(C)CC1=O)N2 (stereo in doubt) [Compound 286]
(II) COc1ccccc1C1(C)C2=C(CC(C)(C)CC2=O)Nc2n[nH]c(C3CC(F)(F)C3)c21 (racemic) [Compound 253]
(III) CC(C)(C)Cc1[nH]nc2c1[C@]1(CCc3ccccc31)C1=C(CC(C)(C)CC1=O)N2 (stereo in doubt) [Compound 283]
Exam item: list the entries in increasing order of GSK3β fold selectivity. Provide the labels, sequenced as the question asks.
II, I, III
(II: 3.7 fold, I: 6.0 fold, III: 9.0 fold)

----------
Target: GSK3β (Homo sapiens, UniProt P49841)
Sequence (P49841 whole entry): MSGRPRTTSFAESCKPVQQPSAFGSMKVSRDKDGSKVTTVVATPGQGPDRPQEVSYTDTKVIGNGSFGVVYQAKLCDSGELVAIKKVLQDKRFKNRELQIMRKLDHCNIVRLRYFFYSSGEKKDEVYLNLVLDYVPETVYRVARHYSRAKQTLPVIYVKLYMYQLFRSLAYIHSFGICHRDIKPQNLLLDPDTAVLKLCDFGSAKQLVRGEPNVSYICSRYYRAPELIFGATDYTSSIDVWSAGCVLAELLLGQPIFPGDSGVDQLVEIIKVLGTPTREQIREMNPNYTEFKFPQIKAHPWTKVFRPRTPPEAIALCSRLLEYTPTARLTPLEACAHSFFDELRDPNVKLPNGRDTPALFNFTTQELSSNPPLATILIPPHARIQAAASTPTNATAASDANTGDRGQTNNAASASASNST
Settings: Caliper assay; GSK3β over GSK3α
measurement.kind: GSK3β fold selectivity (fold)

# example entries with known answers
[
  {
    "molecule": "CC(C)c1[nH]nc2c1[C@@](C)(c1ccccc1)C1=C(CC(C)(C)CC1=O)N2 (stereo in doubt) [Compound 298]",
    "tested.on": "GSK3β (Homo sapiens, UniProt P49841)",
    "GSK3β fold selectivity [fold]": 2.1
  },
  {
    "molecule": "COc1ccccc1[C@H]1C2=C(CC(C)(C)CC2=O)Nc2n[nH]c(CC(C)(C)C)c21 (stereo in doubt) [Compound 279]",
    "tested.on": "GSK3β (Homo sapiens, UniProt P49841)",
    "GSK3β fold selectivity [fold]": 9.6
  },
  {
    "molecule": "CC1(C)CC(=O)C2=C(C1)Nc1n[nH]c(C3CC(F)(F)C3)c1[C@@]2(C)c1ccccc1 (stereo in doubt) [Compound 128]",
    "tested.on": "GSK3β (Homo sapiens, UniProt P49841)",
    "GSK3β fold selectivity [fold]": 17.6
  }
]

(1) CC(C)(C)Cc1[nH]nc2c1[C@@](C)(c1ccc(F)cc1)C1=C(CC(C)(C)CC1=O)N2 (stereo in doubt) [Compound 277]
(2) CC1(C)CC(=O)C2=C(C1)Nc1n[nH]c(C3CCCC3)c1[C@@]2(C)c1ccccc1 (stereo in doubt) [Compound 302]
I'd appreciate it if you could identify which of 1 and 2 has the greater GSK3β fold selectivity. Returns: label corresponding to the selected item.
2
(2: 5.2 fold, 1: 3.0 fold)
